Tested on: Strain MNH05119
Experiment: antibiotic susceptibility testing, disk diffusion test
Assay type: cell-based, Christensenella sp.
Conditions: result in words
Procedure: Antibiotic susceptibility testing was performed separately for each strain using the disk diffusion test.
REPORTED PROPERTY: susceptibility of strain MNH05119 to the antibiotic

Example molecules with recorded susceptibility of strain MNH05119 to the antibiotic:
O=C(O)c1cn(C2CC2)c2cc(N3CCNCC3)c(F)cc2c1=O | resistance
CO/N=C(\C(=O)N[C@@H]1C(=O)N2C(C(=O)O)=C(CSc3nc(=O)c(=O)[nH]n3C)CS[C@H]12)c1csc(N)n1 | resistance
O=C(N[C@H](CO)[C@H](O)c1ccc([N+](=O)[O-])cc1)C(Cl)Cl | sensitive
CC[C@H]1OC(=O)[C@H](C)[C@@H](O[C@H]2C[C@@](C)(OC)[C@@H](O)[C@H](C)O2)[C@H](C)[C@@H](O[C@@H]2O[C@H](C)C[C@H](N(C)C)[C@H]2O)[C@](C)(O)C[C@@H](C)C(=O)[C@H](C)[C@@H](O)[C@]1(C)O [Erythromycin (ERM), Erythromycin] | sensitive
CC1(C)S[C@@H]2[C@H](NC(=O)[C@H](N)c3ccccc3)C(=O)N2[C@H]1C(=O)O | resistance

Moving on to another molecule below.
Record "CCC[C@@H]1C[C@@H](C(=O)N[C@@H]([C@H]2O[C@H](SC)[C@H](O)[C@@H](O)[C@H]2O)[C@@H](C)O)N(C)C1" , field susceptibility of strain MNH05119 to the antibiotic: resistance
